Below is a list of entries, each paired with its recorded relative viability value.
Tested on: HS729
Assay: relative viability vs DMSO control (72 h) (fraction); higher = more viable cells
Conditions: 0.00051 µM
Just the number, please, no unit after it.

Below, each entry is followed by its recorded relative viability result.
> print(dat)
                      smiles.representation  assayed.target   measured.endpoint  value.reported
1  O=C(Cc1ccc(-c2ccc(OCCN3CCOCC3)cc2)cn1)NCc1ccccc1           HS729  relative viability            1.02
2  CC(C)(C)c1cc(NC(=O)Nc2ccc(-c3cn4c(n3)sc3cc(OCCN5CCOCC5)ccc34)cc2)no1           HS729  relative viability           0.973

Now look at this entry.
IN: Which relative viability is reported for this molecule? "CNC(=O)c1cc(Oc2ccc(NC(=O)Nc3ccc(Cl)c(C(F)(F)F)c3)c(F)c2)ccn1"
OUT: 1.07

====

Recorded relative viability by entry
Tested on: SK-LMS-1
Experiment: relative viability vs DMSO control (72 h) (fraction); higher = more viable cells
Conditions: 1.111 µM
No unit in the answer, only the number.

// worked examples, relative viability included
> print(dat)
                      smiles.representation  assayed.target  value.reported
1     Cc1cc(C)c(/C=C2\C(=O)Nc3ccccc32)[nH]1        SK-LMS-1           0.905
2  Cn1cc(-c2cc3c(N4CCN(c5ncc([C@@](C)(N)c6ccc(F)cc6)cn5)CC4)ncnn3c2)cn1        SK-LMS-1           0.877

Read the next record carefully.
IN: Sample "COc1cc2c(Oc3ccc4[nH]c(C)cc4c3F)ncnc2cc1OCCCN1CCCC1" — what was its relative viability?
OUT: 0.925

====

System: SYO-1
Test: relative viability vs DMSO control (72 h) (fraction); higher = more viable cells
Conditions: 3.333 µM
Label criterion met when relative viability < 0.6; otherwise criterion not met.

Answered examples (4):
> print(dat)
                                   compound              label
1  CC(=O)Nc1cccc(-n2c(=O)n(C3CC3)c(=O)c3c(Nc4ccc(I)cc4F)n(C)c(=O)c(C)c32)c1 [Trametinib]  criterion not met
2  Cc1ccc(NC(=O)c2ccc(CN3CCN(C)CC3)cc2)cc1Nc1nc(-c2cccnc2)cs1 [Masitinib]      criterion met
3  Nc1cc(C(F)(F)F)c(-c2cc(N3CCOCC3)nc(N3CCOCC3)n2)cn1 [Buparlisib]      criterion met
4  CC1(C)CNc2cc(NC(=O)c3cccnc3NCc3ccncc3)ccc21 [Motesanib]  criterion not met

IN: Criterion: relative viability strictly below 0.6. Is it met by Cn1cnc2c(F)c(Nc3ccc(Br)cc3F)c(C(=O)NOCCO)cc21 [Binimetinib] ?
OUT: criterion not met

IN: Also, COc1cc2/c(=N/c3ccc(Br)cc3F)nc[nH]c2cc1OCC1CCN(C)CC1 [Vandetanib] please.
OUT: criterion met

IN: Then what about the compound Cc1cc(Nc2ncnc3ccc(NC4=NC(C)(C)CO4)cc23)ccc1Oc1ccn2ncnc2c1 [Tucatinib] ?
OUT: criterion not met

====

System: SYO-1
Test: standardised AUC of viability dose-response curve (72 h) (fraction (0-1)); higher = less growth inhibition (more resistant)
standardised AUC values for the compounds below.
Please reply with the number alone, leaving off any unit.

IN: Request: standardised AUC, test system SYO-1, entry "C=CC(=O)Nc1cccc(Oc2nc(Nc3ccc(N4CCN(C)CC4)cc3)nc3ccsc23)c1"
OUT: 0.923

IN: Also need "C[C@]1(O)C[C@@H](c2nc(-c3ccc4ccc(-c5ccccc5)nc4c3)c3c(N)nccn32)C1" , thanks.
OUT: 0.876

IN: Repeat with "Cn1cnc2c(F)c(Nc3ccc(Br)cc3F)c(C(=O)NOCCO)cc21"
OUT: 0.922

====

Test system: SW684
Assay: relative viability vs DMSO control (72 h) (fraction); higher = more viable cells
Settings: 0.00457 µM
// values below are reported relative viability

As a guide, the following entries are already answered.
> print(dat)
                      smiles.representation   measured.endpoint  value.reported
1  C[C@@H]1COCCN1c1cc(-c2ccnn2C)c2ccnc(-c3ccn[nH]3)c2n1  relative viability            1.17
2  CNC(=O)c1cc(Oc2ccc(NC(=O)Nc3ccc(Cl)c(C(F)(F)F)c3)c(F)c2)ccn1  relative viability            1.24
3  O=C(Cc1ccc(-c2ccc(OCCN3CCOCC3)cc2)cn1)NCc1ccccc1  relative viability            1.18
4  Cc1cc(Nc2ncnc3ccc(NC4=NC(C)(C)CO4)cc23)ccc1Oc1ccn2ncnc2c1  relative viability            1.18
5  C=CC(=O)Nc1cccc(Oc2nc(Nc3ccc(N4CCN(C)CC4)cc3)nc3ccsc23)c1  relative viability            1.15

IN: Look up relative viability: "CN1CCC(COc2cnc(-c3cccc(Cn4nc(-c5cccc(C#N)c5)ccc4=O)c3)nc2)CC1"
OUT: 1.16

====

System: VA-ES-BJ
Assay: relative viability vs DMSO control (72 h) (fraction); higher = more viable cells
Conditions: 0.00457 µM
Collected relative viability values appear next to each entry.
Answer with a number only.

Worked cases, relative viability given:
smiles_representation	relative viability
CO[C@H]1C[C@@H]2CC[C@@H](C)[C@@](O)(O2)C(=O)C(=O)N2CCCC[C@H]2C(=O)O[C@H]([C@H](C)C[C@@H]2CC[C@@H](OP(C)(C)=O)[C@H](OC)C2)CC(=O)[C@H](C)/C=C(\C)[C@@H](O)[C@@H](OC)C(=O)[C@H](C)C[C@H](C)/C=C/C=C/C=C/1C	0.602
COc1c(OCCCN2CCOCC2)ccc2c1N=C(NC(=O)c1cnc(N)nc1)N1CCN=C21	0.74
C[C@@H]1COCCN1c1cc(-c2ccnn2C)c2ccnc(-c3ccn[nH]3)c2n1	1.05
CN1CCN(c2ccc3nc(-c4c(N)c5c(F)cccc5[nH]c4=O)[nH]c3c2)CC1	1.08

Let us move to another entry and its relative viability.
IN: // map "O=C(Cc1ccc(-c2ccc(OCCN3CCOCC3)cc2)cn1)NCc1ccccc1" to recorded relative viability (system: VA-ES-BJ)
OUT: 1.05

====

System: SK-ES-1
Assay: relative viability vs DMSO control (72 h) (fraction); higher = more viable cells
Details: 0.1235 µM
measured_endpoint: relative viability
Reply with just the number.

> print(dat)
                      smiles.representation  value.reported
1  C[C@@H]1CCN(C(=O)CC#N)C[C@@H]1N(C)c1ncnc2[nH]ccc12           0.997
2  COc1c(OCCCN2CCOCC2)ccc2c1N=C(NC(=O)c1cnc(N)nc1)N1CCN=C21           0.305

IN: Param item = "COc1cc2nccc(Oc3ccc(NC(=O)Nc4cc(C)on4)c(Cl)c3)c2cc1OC" ; retrieve measured relative viability.
OUT: 1.08

====

System: G401
Assay: relative viability vs DMSO control (72 h) (fraction); higher = more viable cells
Conditions: 0.00457 µM
# relative viability per entry

> print(dat)
                                   molecule  assayed.target  value.reported
1  CNC(=O)c1ccc(-c2cnc3ncc(Cc4ccc5ncccc5c4)n3n2)cc1F [Capmatinib]            G401            1.04
2  Cc1cc(C)c(/C=C2\C(=O)Nc3ccccc32)[nH]1 [Semaxanib]            G401           0.976
3  CC(C)N1CCN(Cc2cnc(-c3cc(-c4cccc5[nH]ccc45)cc4[nH]ncc34)o2)CC1 [Nemiralisib]            G401           0.921

Now take the following molecule into account.
IN: What measured relative viability is associated with C[C@]1(O)C[C@@H](c2nc(-c3ccc4ccc(-c5ccccc5)nc4c3)c3c(N)nccn32)C1 [Linsitinib] on G401?
OUT: 0.955

====

Here the recorded relative viability is given for each entry.
Tested on: SW872
Assay: relative viability vs DMSO control (72 h) (fraction); higher = more viable cells
Conditions: 0.04115 µM
Please respond with just the number, no unit label.

Solved cases below.
> print(dat)
                      smiles.representation  value.reported
1  CN1CCC(COc2cnc(-c3cccc(Cn4nc(-c5cccc(C#N)c5)ccc4=O)c3)nc2)CC1            1.01
2  C=CC(=O)N1CCC[C@@H](n2nc(-c3ccc(Oc4ccccc4)cc3)c3c(N)ncnc32)C1           0.976
3  CCCS(=O)(=O)Nc1ccc(F)c(C(=O)c2c[nH]c3ncc(-c4ccc(Cl)cc4)cc23)c1F            1.02

Shifting focus to the molecule that follows.
IN: Consider the molecule "O=C(Nc1cnn2ccc(N3CCC[C@@H]3c3cc(F)ccc3F)nc12)N1CC[C@H](O)C1" and give its measured relative viability.
OUT: 0.99

Data credit: the supplement of paper PMC10883282
